Setup conditions: in methanol, 303.15 K
Result type: solubility (mole fraction)
Enter the number alone.

Query block: Given the entry N#CCC(N)=O , report its measured solubility (mole fraction).
Result block: 0.04

---

Setup conditions: in DMF, 293.15 K
Result type: solubility (mole fraction)
The answer should be a number; do not append a unit.

Query block: Need solubility (mole fraction) of N#CCC(N)=O , thanks.
Result block: 0.295

---

Setup conditions: in acetone, 308.15 K
Result type: solubility (mole fraction)
Form: value (number only, do not type unit).

Query block: Quick one: solubility (mole fraction) of N#CCC(N)=O ?
Result block: 0.0712

---

Setup conditions: in water, 308.15 K
Result type: solubility (mole fraction)
Kindly provide the number alone.

Query block: Could you share which solubility (mole fraction) value was measured for N#CCC(N)=O ?
Result block: 0.0674

---

Setup conditions: in ethanol, 303.15 K
Result type: solubility (mole fraction)
Lab note: write the figure by itself, no unit.

Query block: Please give the measured solubility (mole fraction) for this compound: N#CCC(N)=O
Result block: 0.0157

---

Setup conditions: in DMF, 313.15 K
Result type: solubility (mole fraction)
Reply briefly: the number, and no unit.

Query block: Reported solubility (mole fraction), molecule N#CCC(N)=O : ____
Result block: 0.36

---

Setup conditions: in methanol, 278.15 K
Result type: solubility (mole fraction)
Please give only the number in your answer, with no unit.

Query block: Which solubility (mole fraction) value belongs to N#CCC(N)=O ?
Result block: 0.0156

---

Setup conditions: in DMF, 273.15 K
Result type: solubility (mole fraction)
Just the number, please, no unit after it.

Query block: Any idea what its solubility (mole fraction) is? The molecule is N#CCC(N)=O
Result block: 0.254

---

Setup conditions: in n-propanol, 288.15 K
Result type: solubility (mole fraction)

Query block: Entry N#CCC(N)=O : reported solubility (mole fraction) = ?
Result block: 0.00461

---

Setup conditions: in chloroform, 318.15 K
Result type: solubility (mole fraction)
Just the number.

Query block: Reported solubility (mole fraction), molecule N#CCC(N)=O : ____
Result block: 0.00208

---

Setup conditions: in ethanol, 313.15 K
Result type: solubility (mole fraction)
Keep it simple and answer with nothing but the number.

Query block: // lookup solubility (mole fraction) for N#CCC(N)=O
Result block: 0.0229

---

Setup conditions: in methanol, 318.15 K
Result type: solubility (mole fraction)

Query block: # input compound: N#CCC(N)=O ; wanted: its solubility (mole fraction)
Result block: 0.0674

---

Setup conditions: in n-butanol, 288.15 K
Result type: solubility (mole fraction)
Kindly provide the number alone.

Query block: Entry N#CCC(N)=O : reported solubility (mole fraction) = ?
Result block: 0.00377

---

Setup conditions: in DMF, 318.15 K
Result type: solubility (mole fraction)
Please reply with the value in numeric form only.

Query block: Param item = N#CCC(N)=O ; retrieve measured solubility (mole fraction).
Result block: 0.382

---

Setup conditions: in ethyl acetate, 308.15 K
Result type: solubility (mole fraction)

Query block: Which solubility (mole fraction) reading was recorded for the compound N#CCC(N)=O ?
Result block: 0.0128

---

Setup conditions: in dichloromethane, 303.15 K
Result type: solubility (mole fraction)
Form: value (number only, do not type unit).

Query block: Quick one: solubility (mole fraction) of N#CCC(N)=O ?
Result block: 0.000931
